# Tested on: KRAS PDC multicell spheroid viability
# Protocol Summary: Anticancer human tumor 521955-158-R6-J3-PDC patient-derived pancreatic carcinoma cell line growth inhibition [KRAS2]
# Settings: curve of first compound; second compound 10 µM
pIC50: −log10 of the molar value.
Readout Kind: pIC50

Example entries and their recorded answers appear below.
CC(=O)Nc1cccc(-n2c(=O)n(C3CC3)c(=O)c3c(Nc4ccc(I)cc4F)n(C)c(=O)c(C)c32)c1 + CNCc1ccccc1-c1csc(C(C)Nc2nc(C)nc3cc(OC)c(OC)cc23)c1    > 10.00
CC1OCC2(CCN(c3cnc(Sc4ccnc(N)c4Cl)c(N)n3)CC2)C1N (stereo not given) + COc1cc2nc(C)nc(NC(C)c3cc(N)cc(C(F)(F)F)c3)c2cc1OC1CCOC1    > 7.50
CC(C)n1nc(-c2ccc3oc(N)nc3c2)c2c(N)ncnc21 + COc1cc2nc(C)nc(NC(C)c3cc(N)cc(C(F)(F)F)c3)c2cc1OC1CCOC1    > 9.50
O=C(c1cc(Cc2n[nH]c(=O)c3ccccc23)ccc1F)N1CCN(C(=O)C2CC2)CC1 + C=CC(=O)N1CCN(c2nc(=O)n(-c3c(C)ccnc3C(C)C)c3nc(-c4c(O)cccc4F)c(F)cc23)C(C)C1    < 5.00

Below: the item to evaluate.
Consider COc1cc2nccc(Oc3ccc(NC(=O)C4(C(=O)Nc5ccc(F)cc5)CC4)cc3)c2cc1OC + CC1OCC2(CCN(c3cnc(Sc4ccnc(N)c4Cl)c(N)n3)CC2)C1N . Its measured pIC50 is < 5.00

---

# Test system: KRAS PDC multicell spheroid viability
# Protocol Summary: Anticancer human tumor 521955-158-R6-J3-PDC cell line growth inhibition [KRAS2];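 note: drug exposure lasted seven days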;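 for viability, T/C: 100% = DMSO vehicle wells and lower means fewer viable cells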
# Settings: second compound 10 µM; first compound 0.01 µM; stronger effect = lower value
# Text: Multicellular complex tumor spheroid response to RAS pathway inhibitors in combination with a targeted agents in patient-derived cell lines with oncogenic KRAS variants from multiple cancer types A high-throughput screen of multi-cell type tumor spheroids was designed to identify active combinations of targeted small molecules and KRAS pathway inhibitors. […] Compounds. […] If the clinical Cmax for an agent had not been determined, the highest concentration tested was 10 microM. […]
Labelling: viability, T/C reported below 40% becomes 1.0; at or above becomes 0.0.

Observe how each entry below is paired with its result.
CC(C)n1nc(-c2ccc3oc(N)nc3c2)c2c(N)ncnc21 + CC1OCC2(CCN(c3cnc(Sc4ccnc(N)c4Cl)c(N)n3)CC2)C1N    0.0
CC1COCCN1c1cc(-c2ccnn2C)c2ccnc(-c3ccn[nH]3)c2n1 (stereo not given) + COc1cc2nc(C)nc(NC(C)c3cc(N)cc(C(F)(F)F)c3)c2cc1OC1CCOC1    0.0
Cn1ncnc1[C@H]1c2n[nH]c(=O)c3cc(F)cc(c23)N[C@@H]1c1ccc(F)cc1 + CNCc1ccccc1-c1csc(C(C)Nc2nc(C)nc3cc(OC)c(OC)cc23)c1    1.0
CCN1CCN(Cc2ccc(Nc3ncc(F)c(-c4cc(F)c5nc(C)n(C(C)C)c5c4)n3)nc2)CC1 + CNCc1ccccc1-c1csc(C(C)Nc2nc(C)nc3cc(OC)c(OC)cc23)c1    1.0

Continue with the compound presented below.
API: query returns whether the compound falls strictly under 40% in viability, T/C. Query: CC(=O)OC12COC1CC(O)C1(C)C(=O)C(O)C3=C(C)C(OC(=O)C(O)C(NC(=O)OC(C)(C)C)c4ccccc4)CC(O)(C(OC(=O)c4ccccc4)C21)C3(C)C (stereo not given) + COc1cc2nc(C)nc(NC(C)c3cc(N)cc(C(F)(F)F)c3)c2cc1OC1CCOC1
0.0
